molecular target: rat VMAT2-His (Rattus norvegicus); construct: The ORF of rat VMAT2 was subcloned into a pFastBac vector; His; made in house; host or cells: Sf9 insect cells (baculovirus); test: Differential scanning fluorimetry (DSF) with CPM dye: change of melting temperature of purified VMAT2; type: binding; settings: Table S2 dose response, compound 0,37 µM; read-out: ΔTm
Sequence (Q01827 whole entry): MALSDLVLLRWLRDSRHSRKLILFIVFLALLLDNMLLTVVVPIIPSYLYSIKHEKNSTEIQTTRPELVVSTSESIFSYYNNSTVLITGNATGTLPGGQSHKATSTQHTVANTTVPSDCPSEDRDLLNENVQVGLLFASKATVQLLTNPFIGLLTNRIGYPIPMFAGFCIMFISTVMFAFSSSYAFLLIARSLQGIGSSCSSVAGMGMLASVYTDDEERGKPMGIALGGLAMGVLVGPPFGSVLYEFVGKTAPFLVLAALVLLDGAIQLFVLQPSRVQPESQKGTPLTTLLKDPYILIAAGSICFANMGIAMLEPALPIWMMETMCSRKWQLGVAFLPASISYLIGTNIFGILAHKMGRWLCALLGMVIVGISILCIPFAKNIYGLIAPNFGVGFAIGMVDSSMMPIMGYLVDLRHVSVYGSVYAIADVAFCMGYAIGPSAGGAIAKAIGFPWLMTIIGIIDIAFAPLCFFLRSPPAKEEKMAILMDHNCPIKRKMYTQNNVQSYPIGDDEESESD
Structures can show the parent of a compound that is named as a salt.
observable: ΔTm at 37 µM (°C)

{"compound": "CC(C)n1c(/C=C/C(O)CC(O)CC(=O)O)c(-c2ccc(F)cc2)c2ccccc21 (stereo not shown) [Fluvastatin, Fluvastatin sodium salt]", "observable": "ΔTm at 37 µM", "meas.value": 0.66}
{"compound": "Cc1cccc(C)c1NC(=O)CN1CCN(CCCC(c2ccc(F)cc2)c2ccc(F)cc2)CC1", "observable": "ΔTm at 37 µM", "meas.value": 0.05}
{"compound": "OC(CCN1CCCCC1)(c1ccccc1)C1CC2C=CC1C2 (stereo not shown) [Biperiden, Biperiden hydrochloride]", "observable": "ΔTm at 37 µM", "meas.value": 0.33}
{"compound": "CCCCC(CC)CN1CN(CC(CC)CCCC)CC(C)(N)C1 (stereo not shown)", "observable": "ΔTm at 37 µM", "meas.value": -0.06}
